Assay Explanation: Apparent permeability of compound across basolateral to apical side in human Caco-2 cells assessed as drug recovery at 10 uM incubated for 5 to 95 mins by LC-MS/MS analysis relative to control
Assay type: ADME, cell-based
Experimental Parameters: time 5-95 min, read-out: Drug recovery
Endpoint Label: recovery at 10 µM (%)
One number for each entry, in %.

Record `COc1cc(N2CCC(N3CCN(C)CC3)CC2)c(C)cc1Nc1ncc(Br)c(Nc2ccc(C)cc2P(C)(C)=O)n1` . Reported recovery at 10 µM: 78.6

* * *

Assay Explanation: MRT (0 to infinity) in male Cynomolgus monkey plasma at 3 mg/kg, po measured after 96 hrs LC-MS/MS analysis
Assay type: ADME, organism-based, Macaca fascicularis
Endpoint Label: MRT inf (h)
One number for each entry, in h.

Record `COc1cc(N2CCC(N3CCN(C)CC3)CC2)c(C)cc1Nc1ncc(Br)c(Nc2ccc(C)cc2P(C)(C)=O)n1` . Reported MRT inf: 16.8
